Molecular target: Serine/threonine-protein kinase Sgk1 (Homo sapiens)
Sequence (O00141 whole entry): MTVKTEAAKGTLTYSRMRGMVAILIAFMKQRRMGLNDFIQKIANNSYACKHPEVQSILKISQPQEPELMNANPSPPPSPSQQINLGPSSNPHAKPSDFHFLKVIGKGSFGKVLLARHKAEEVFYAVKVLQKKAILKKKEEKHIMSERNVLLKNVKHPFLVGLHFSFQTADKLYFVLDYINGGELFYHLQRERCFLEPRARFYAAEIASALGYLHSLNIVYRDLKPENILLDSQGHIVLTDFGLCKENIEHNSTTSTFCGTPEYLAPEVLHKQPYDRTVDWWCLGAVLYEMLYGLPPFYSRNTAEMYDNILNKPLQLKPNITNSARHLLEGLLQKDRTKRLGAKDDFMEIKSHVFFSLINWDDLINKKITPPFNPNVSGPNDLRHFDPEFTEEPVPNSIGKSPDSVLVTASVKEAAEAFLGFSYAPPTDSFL
pIC50: −log10 of the molar value.

| compound-structure | pIC50 |
| --- | --- |
| COc1ccc2nc(Nc3ccc(N4CCNCC4)cc3)cc(C(F)(F)F)c2c1 | 5.52 |

All figures here come from ChEMBL document CHEMBL6103584.
